# test_target: mouse TMEM16A mutant I636A (Mus musculus, UniProt Q8BHY3, I636A)
# Construct: expressed in transfected cells; host or cells: HEK293T
# Sequence (Q8BHY3 1-960 I636A): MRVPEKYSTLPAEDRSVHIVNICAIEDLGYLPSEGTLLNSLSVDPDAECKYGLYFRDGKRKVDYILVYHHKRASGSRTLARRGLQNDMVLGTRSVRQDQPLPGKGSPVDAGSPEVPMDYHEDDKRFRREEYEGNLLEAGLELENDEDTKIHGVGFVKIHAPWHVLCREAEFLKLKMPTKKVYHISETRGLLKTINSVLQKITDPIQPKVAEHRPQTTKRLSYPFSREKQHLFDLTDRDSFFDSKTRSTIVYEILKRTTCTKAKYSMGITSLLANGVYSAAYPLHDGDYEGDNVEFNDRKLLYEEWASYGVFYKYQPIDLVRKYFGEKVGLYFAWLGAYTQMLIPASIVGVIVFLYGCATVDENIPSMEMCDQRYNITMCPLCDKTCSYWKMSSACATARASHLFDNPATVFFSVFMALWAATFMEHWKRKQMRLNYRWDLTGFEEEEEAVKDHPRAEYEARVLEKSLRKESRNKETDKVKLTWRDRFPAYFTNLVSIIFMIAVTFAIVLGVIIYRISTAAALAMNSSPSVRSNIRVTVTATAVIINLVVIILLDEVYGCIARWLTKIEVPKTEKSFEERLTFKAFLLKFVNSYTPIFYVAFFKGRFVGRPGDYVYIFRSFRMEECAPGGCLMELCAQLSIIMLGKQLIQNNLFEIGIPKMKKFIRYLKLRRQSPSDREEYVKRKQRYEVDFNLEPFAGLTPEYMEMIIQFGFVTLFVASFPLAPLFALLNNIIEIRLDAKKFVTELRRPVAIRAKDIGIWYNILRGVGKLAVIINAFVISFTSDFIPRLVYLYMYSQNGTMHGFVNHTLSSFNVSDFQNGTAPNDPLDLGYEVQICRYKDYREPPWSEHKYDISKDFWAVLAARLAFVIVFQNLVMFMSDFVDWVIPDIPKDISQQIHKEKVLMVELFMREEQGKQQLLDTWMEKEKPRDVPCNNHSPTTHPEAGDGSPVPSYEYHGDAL
# protocol_summary: Inside-out patch recording of 1PBC block, mutant I636A
# Assay type: cell-based
# test_settings: 120 mV; 15 µM Ca2+
pIC50: −log10 of the molar value.
observed_property: pIC50

>>> value("N#Cc1c(C(F)(F)F)cc(O)n2c1nc1ccccc12")
5.39
